System: STA-ET-1 Ewing's sarcoma cells
Assay procedure: Cell viability assay (7AAD, 48 hours), STA-ET-1
Format: cell-based
Condition notes: 48 hours exposure; read-out: Cancer cell lines IC50 (μM) STA-ET-1
Where a SMILES comes first, the peptide text is derived from it. The star is where a group is joined. Cbz = O=C(OCc1ccccc1)*
Endpoint label: IC50 (µM)
Provide only the numeric value, understood in µM.

Compound: C#CCOc1ccc(C[C@@H](C=O)NC(=O)[C@H](CC(C)C)NC(=O)[C@H](CCCCN=[N+]=[N-])NC(=O)OCc2ccccc2)cc1
Assay target: STA-ET-1 Ewing's sarcoma cells
IC50, µM: 2.6

Compound: C#CCOc1ccc(C[C@@H](C=O)NC(=O)[C@H](CC(C)C)NC(=O)[C@H](Cc2ccc(N=[N+]=[N-])cc2)NC(=O)OCc2ccccc2)cc1
Assay target: STA-ET-1 Ewing's sarcoma cells
IC50, µM: 2.4

Compound: C#CCOc1ccc(C[C@@H](C=O)NC(=O)[C@@H](NC(=O)[C@H](CCCCN=[N+]=[N-])NC(=O)OCc2ccccc2)[C@@H](C)CC)cc1
Assay target: STA-ET-1 Ewing's sarcoma cells
IC50, µM: 1

Item: CC(C)C[C@@H](C=O)NC(=O)[C@H](CC(C)C)NC(=O)[C@H](CC(C)C)NC(=O)OCc1ccccc1 [MG132, reference compound] (Cbz-Leu-Leu-Leu-aldehyde) | IC50: 0.59

Lab book: IC50 of "C#CCOc1ccc(C[C@@H](C=O)NC(=O)[C@H](CC(C)C)NC(=O)[C@H](CCN=[N+]=[N-])NC(=O)OCc2ccccc2)cc1" noted as 5.4

Data provenance: patent US20150299250A1
